Target: T1, recombinant human sc-uPA (human, UniProt P00749 21-431)
T1 construct: 411 amino acid single-chain zymogen expressed in HEK293; the 20-residue signal peptide is not present in the mature protein; also called human single-chain uPA; pro-uPA
Test: SPR, mAb immobilised
MEASURE NAME: Kd (nM)

| BINDER | MEASURE NAME | RECORDED VALUE |
| --- | --- | --- |
| rec0266-0000-0010-VH_D95F (antibody, mouse IgG1, V domains shown) VH: DVKLVESGGGLVKPGGSLKLSCVASGFTFSSYTMSWVRQTPEKRLEWVATISGGGSHIYYADSVKGRFTISRDNAKNTLYLQMSSLKSEDTAIYYCTRFGRDGSWFAYWGQGTLVTVSA VL: DIVMTQSPATLSVTPGDRVSLSCRTSQSIGDYLHWYQQKSHESPRLLIKYVSQSISGIPSRFSGSGSGSDFTLSINSVESEDVGVYYCQNSHSFPLTFGSGTKLELKR | Kd | 12 |
| rec0266-0000-0010-VH_G96P (antibody, mouse IgG1, V domains shown) VH: DVKLVESGGGLVKPGGSLKLSCVASGFTFSSYTMSWVRQTPEKRLEWVATISGGGSHIYYADSVKGRFTISRDNAKNTLYLQMSSLKSEDTAIYYCTRDPRDGSWFAYWGQGTLVTVSA VL: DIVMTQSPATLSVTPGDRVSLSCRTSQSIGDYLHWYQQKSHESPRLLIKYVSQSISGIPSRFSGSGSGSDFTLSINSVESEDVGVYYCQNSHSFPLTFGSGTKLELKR | Kd | 2.1 |
